Biological target: human V2 receptor (Homo sapiens, UniProt P30518)
Construct: expressed in transfected cells; host or cells: CHO K1 (ATCC) expressing firefly luciferase under a CRE-responsive promoter
Sequence (P30518 whole entry): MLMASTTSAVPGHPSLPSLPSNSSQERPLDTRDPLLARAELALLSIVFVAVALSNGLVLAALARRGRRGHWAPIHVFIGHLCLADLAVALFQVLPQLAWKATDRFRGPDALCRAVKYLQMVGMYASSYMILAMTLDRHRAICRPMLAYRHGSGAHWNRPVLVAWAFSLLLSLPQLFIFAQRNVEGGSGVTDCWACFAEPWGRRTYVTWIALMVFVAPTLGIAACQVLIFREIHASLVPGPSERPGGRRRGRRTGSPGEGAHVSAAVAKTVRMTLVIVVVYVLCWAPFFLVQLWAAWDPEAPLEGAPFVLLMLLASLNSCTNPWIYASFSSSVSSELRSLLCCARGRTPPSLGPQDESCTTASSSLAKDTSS
Test: Cellular in vitro assay for determining vasopressin receptor activity, V2 receptor cell line (CHO, CRE-luciferase)
Type: cell-based
Conditions: CHO cell line transfected with human V2 receptor; [Arg8]-vasopressin at EC50 concentration, 3 hours; read-out: IC50 hV2
PROPERTY_MEASURED: pIC50
API: returns pIC50 as number; meaning -log10 of concentration in mol/L.

Worked examples follow.
N[C@H]1CCCC[C@@H]1NC(=O)c1ccccc1-n1cnc(Cn2nc(-c3ccc(Cl)cc3)n(C[C@H](O)C(F)(F)F)c2=O)n1 [Example 233]	5.17
Cc1cccc(C(=O)Nc2ncccc2-n2cnc(Cn3nc(-c4ccc(Cl)cc4)n(C[C@H](O)C(F)(F)F)c3=O)n2)n1 [Example 107]	6.15

Now for another entry.
Ask: Fill in: pIC50 of O=C(Nc1cccc[n+]1[O-])c1ccccc1-n1cnc(Cn2nc(-c3ccc(Cl)cc3)n(C[C@H](O)C(F)(F)F)c2=O)n1 [Example 219] is ___
Reply: 7.38
